- Tested on: Plasmodium berghei
- Assay remarks: Luciferase/luciferin-expressing antifolate-resistant parasites were used to infect a culture of HepG2 cells that were pre-incubated with compounds. Infected hepatocytes emit light due to the luciferase reaction. Assay results are presented as the percent inhibition of light emission compared to control. […]
- Assay type: functional
- Experimental conditions: sporozoite, read-out: LUCIFERASE INFECTION ASSAY - IC90
Property: IC90

| Smiles text | Endpoint value |
| --- | --- |
| Cc1ccc(C(=O)Nc2nc3ccccn3c2C(=O)NC(C)C)cc1 | > 9.81 µM |
| Cn1nc(C(C)(C)C)cc1C(=O)Nc1ccc2nc(-c3cccnc3)nn2c1 | > 10 µM |
| O=S(=O)(c1ccc(Cl)c(N=C2NN=C(c3c[nH]c4ccccc34)CS2)c1)N1CCOCC1 | > 10 µM |
